System under test: Peroxisome proliferator-activated receptor delta (Homo sapiens)
Sequence (whole entry): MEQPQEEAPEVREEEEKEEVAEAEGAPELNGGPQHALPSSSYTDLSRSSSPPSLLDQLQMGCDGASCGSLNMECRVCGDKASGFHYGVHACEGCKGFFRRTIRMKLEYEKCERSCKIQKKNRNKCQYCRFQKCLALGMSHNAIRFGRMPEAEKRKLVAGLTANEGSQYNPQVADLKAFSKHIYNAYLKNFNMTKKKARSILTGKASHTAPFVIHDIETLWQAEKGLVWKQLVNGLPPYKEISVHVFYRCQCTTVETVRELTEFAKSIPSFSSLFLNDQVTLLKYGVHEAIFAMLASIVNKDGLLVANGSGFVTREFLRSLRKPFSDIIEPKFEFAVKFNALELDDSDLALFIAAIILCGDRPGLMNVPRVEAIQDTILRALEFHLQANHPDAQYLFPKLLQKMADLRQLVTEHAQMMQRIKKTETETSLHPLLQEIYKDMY
Assay explanation: Agonist activity at human PPARdelta expressed in monkey CV1 cells at 10 uM by transactivation assay
Format: functional, cell-based
Cond: CV-1
Threshold check on Activity: at or above 7% gives rule met, strictly below gives rule not met.

// known answers, use as guide
- Smi: "Cc1oc(-c2ccccc2)nc1Cc1ccc([C@H]2CO[C@@](C)(C(=O)O)OC2)cc1"
  Group: "rule not met"
- Smi: "Cc1oc(-c2ccccc2)nc1CCC[C@H]1CO[C@@](C)(C(=O)O)OC1"
  Group: "rule met"
- Smi: "Cc1oc(-c2ccccc2)nc1Cc1cccc(C[C@H]2CO[C@@](C)(C(=O)O)OC2)c1"
  Group: "rule met"
- Smi: "Cc1oc(-c2ccccc2)nc1CCCC[C@H]1CO[C@@H](C(=O)O)OC1"
  Group: "rule not met"
- Smi: "Cc1oc(-c2ccccc2)nc1CCCC[C@H]1CO[C@@](C)(C(=O)O)OC1"
  Group: "rule not met"
- Smi: "CC[C@]1(C(=O)O)OC[C@@H](CCCCc2nc(-c3ccccc3)oc2C)CO1"
  Group: "rule met"
- Smi: "Cc1oc(-c2ccccc2)nc1CCCC[C@H]1CO[C@](C)(C(=O)O)OC1"
  Group: "rule met"
- Smi: "Cc1oc(-c2ccccc2)nc1CCCCC[C@H]1CO[C@@](C)(C(=O)O)OC1"
  Group: "rule met"

query: Confirm if Activity reported for the compound Cc1oc(-c2ccccc2)nc1CCCC[C@H]1CO[C@@](CC(C)C)(C(=O)O)OC1 is 7% or above.
result: rule not met

query: Is it the case that Cc1oc(-c2ccccc2)nc1Cc1ccc(C[C@H]2CO[C@@](C)(C(=O)O)OC2)cc1 has Activity reaching or exceeding 7%?
result: rule met

====

System under test: Peroxisome proliferator-activated receptor delta (Homo sapiens, UniProt Q03181)
Assay explanation: Agonist activity at human PPARdelta expressed in monkey CV1 cells by transactivation assay
Outcome measure: EC50 (µM)
Give bare numbers, in µM.

query: Identify measured EC50 associated with Cc1oc(-c2ccccc2)nc1CCCCCCOC(C)(C)C(=O)O
result: 30

====

System under test: Peroxisome proliferator-activated receptor alpha (Homo sapiens)
Sequence (Q07869 whole entry): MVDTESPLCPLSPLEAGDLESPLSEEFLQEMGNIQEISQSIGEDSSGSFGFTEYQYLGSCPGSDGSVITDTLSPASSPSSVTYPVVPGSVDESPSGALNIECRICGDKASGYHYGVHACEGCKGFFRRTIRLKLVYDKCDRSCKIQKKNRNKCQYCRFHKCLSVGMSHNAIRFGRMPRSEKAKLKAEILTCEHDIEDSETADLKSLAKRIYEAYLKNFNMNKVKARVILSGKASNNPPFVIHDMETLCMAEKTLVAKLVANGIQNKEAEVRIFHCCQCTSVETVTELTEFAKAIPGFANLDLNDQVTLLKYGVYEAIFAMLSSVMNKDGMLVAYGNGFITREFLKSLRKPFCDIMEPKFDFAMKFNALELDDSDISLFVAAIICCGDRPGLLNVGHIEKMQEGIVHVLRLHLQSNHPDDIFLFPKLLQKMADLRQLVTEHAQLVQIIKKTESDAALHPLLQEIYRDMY
Assay explanation: Agonist activity at human PPARalpha expressed in monkey CV1 cells by transactivation assay
Outcome measure: pEC50
Give bare numbers, as −log10 of the molar value.

Here are 2 compounds together with their reported answers.
- Smi: "Cc1oc(-c2ccccc2)nc1Cc1cccc([C@H]2CO[C@@](C)(C(=O)O)OC2)c1"
  Outcome measure: "pEC50"
  Measured: 5.52
- Smi: "Cc1oc(-c2ccccc2)nc1Cc1cccc(C[C@H]2CO[C@@](C)(C(=O)O)OC2)c1"
  Outcome measure: "pEC50"
  Measured: 5.52

State recorded pEC50 for all listed compounds.
1. Cc1oc(-c2ccccc2)nc1CCCC[C@H]1CO[C@](C)(C(=O)O)OC1
2. CC[C@]1(C(=O)O)OC[C@@H](CCCCc2nc(-c3ccccc3)oc2C)CO1
3. Cc1oc(-c2ccccc2)nc1Cc1ccc(C[C@H]2CO[C@@](C)(C(=O)O)OC2)cc1
4. Cc1oc(-c2ccccc2)nc1CCCCC[C@H]1CO[C@@](C)(C(=O)O)OC1

result:
5.52
7.52
5.52
7.00

query: Note pEC50 for the compound shown: Cc1oc(-c2ccccc2)nc1CCCC[C@H]1CO[C@@](CC(C)C)(C(=O)O)OC1
result: 7.52

====

System under test: Peroxisome proliferator-activated receptor gamma (Homo sapiens)
Sequence (whole entry): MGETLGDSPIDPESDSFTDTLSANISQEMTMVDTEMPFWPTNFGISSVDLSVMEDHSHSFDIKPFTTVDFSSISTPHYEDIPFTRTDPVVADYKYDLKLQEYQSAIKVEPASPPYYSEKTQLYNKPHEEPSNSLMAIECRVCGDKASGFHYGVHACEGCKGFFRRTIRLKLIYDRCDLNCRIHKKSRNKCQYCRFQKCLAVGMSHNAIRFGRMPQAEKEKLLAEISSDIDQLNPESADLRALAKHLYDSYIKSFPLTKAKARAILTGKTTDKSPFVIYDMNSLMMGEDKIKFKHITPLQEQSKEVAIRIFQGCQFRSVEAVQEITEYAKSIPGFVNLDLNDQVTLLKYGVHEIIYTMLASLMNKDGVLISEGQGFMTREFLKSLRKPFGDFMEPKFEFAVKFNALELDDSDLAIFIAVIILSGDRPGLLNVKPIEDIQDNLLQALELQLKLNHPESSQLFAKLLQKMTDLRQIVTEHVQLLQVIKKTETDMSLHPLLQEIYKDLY
Assay explanation: Agonist activity at human PPARgamma expressed in monkey CV1 cells at 10 uM by transactivation assay
Format: functional, cell-based
Cond: CV-1
Consider the following molecules; for each one, report its Activity.
One number for each entry, in %.

// solved cases for Activity follow
- Smi: "Cc1oc(-c2ccccc2)nc1Cc1cccc([C@H]2CO[C@@](C)(C(=O)O)OC2)c1"
  System under test: "Peroxisome proliferator-activated receptor gamma (Homo sapiens)"
  Activity, %: 12
- Smi: "Cc1oc(-c2ccccc2)nc1CCCC[C@H]1CO[C@@H](C(=O)O)OC1"
  System under test: "Peroxisome proliferator-activated receptor gamma (Homo sapiens)"
  Activity, %: 0
- Smi: "Cc1oc(-c2ccccc2)nc1Cc1ccc([C@H]2CO[C@@](C)(C(=O)O)OC2)cc1"
  System under test: "Peroxisome proliferator-activated receptor gamma (Homo sapiens)"
  Activity, %: 10

Here's the next entry for you.
query: Give the reported Activity for this molecule. Cc1oc(-c2ccccc2)nc1CCC[C@H]1CO[C@@](C)(C(=O)O)OC1
result: 2

====

A set of compounds tested on Peroxisome proliferator-activated receptor gamma (Homo sapiens, UniProt P37231), with measured log10 EC50:
For clarity, the numbers are log10 values of EC50 expressed in µM.

Record excerpt, results attached:
- Compound: "Cc1oc(-c2ccccc2)nc1Cc1ccc(C[C@H]2CO[C@@](C)(C(=O)O)OC2)cc1"
  System under test: "Peroxisome proliferator-activated receptor gamma (Homo sapiens, UniProt P37231)"
  log10 EC50: 0.48
- Compound: "CC[C@]1(C(=O)O)OC[C@@H](CCCCc2nc(-c3ccccc3)oc2C)CO1"
  System under test: "Peroxisome proliferator-activated receptor gamma (Homo sapiens, UniProt P37231)"
  log10 EC50: 1.00
- Compound: "Cc1oc(-c2ccccc2)nc1CCCC[C@H]1CO[C@](C)(C(=O)O)OC1"
  System under test: "Peroxisome proliferator-activated receptor gamma (Homo sapiens, UniProt P37231)"
  log10 EC50: 1.48
- Compound: "CC(C)(Oc1ccc(CCNC(=O)c2ccc(Cl)cc2)cc1)C(=O)O [BEZAFIBRATE]"
  System under test: "Peroxisome proliferator-activated receptor gamma (Homo sapiens, UniProt P37231)"
  log10 EC50: 2.00

Please go through the list and note log10 EC50 for each compound.
1. Cc1oc(-c2ccccc2)nc1CCCC[C@H]1CO[C@@](CC(C)C)(C(=O)O)OC1
2. Cc1oc(-c2ccccc2)nc1CCCCC[C@H]1CO[C@@](C)(C(=O)O)OC1
3. Cc1oc(-c2ccccc2)nc1Cc1cccc(C[C@H]2CO[C@@](C)(C(=O)O)OC2)c1
4. Cc1oc(-c2ccccc2)nc1CCCCCCOC(C)(C)C(=O)O

result:
1.00
-0.52
0.00
-0.52

====

System under test: Peroxisome proliferator-activated receptor alpha (Mus musculus)
Sequence (P23204 whole entry): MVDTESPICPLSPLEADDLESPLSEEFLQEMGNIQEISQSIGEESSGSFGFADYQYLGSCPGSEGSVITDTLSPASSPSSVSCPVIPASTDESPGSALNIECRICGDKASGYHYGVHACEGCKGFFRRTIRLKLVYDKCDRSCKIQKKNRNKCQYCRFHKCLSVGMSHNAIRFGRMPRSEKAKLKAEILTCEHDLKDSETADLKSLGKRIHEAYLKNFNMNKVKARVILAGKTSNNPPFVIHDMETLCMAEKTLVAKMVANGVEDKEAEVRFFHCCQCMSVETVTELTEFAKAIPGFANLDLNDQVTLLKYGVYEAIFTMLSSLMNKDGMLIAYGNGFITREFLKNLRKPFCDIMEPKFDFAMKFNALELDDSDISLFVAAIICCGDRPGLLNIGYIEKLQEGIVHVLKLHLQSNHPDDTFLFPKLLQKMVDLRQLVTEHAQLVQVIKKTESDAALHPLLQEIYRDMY
Assay explanation: Agonist activity at mouse PPARalpha by transactivation assay
Outcome measure: pEC50
Numbers only, as −log10 of the molar value.

query: Please report the measured pEC50 for CC[C@]1(C(=O)O)OC[C@@H](CCCCc2nc(-c3ccccc3)oc2C)CO1
result: 7.00

====

System under test: Peroxisome proliferator-activated receptor gamma (Mus musculus)
Sequence (P37238 whole entry): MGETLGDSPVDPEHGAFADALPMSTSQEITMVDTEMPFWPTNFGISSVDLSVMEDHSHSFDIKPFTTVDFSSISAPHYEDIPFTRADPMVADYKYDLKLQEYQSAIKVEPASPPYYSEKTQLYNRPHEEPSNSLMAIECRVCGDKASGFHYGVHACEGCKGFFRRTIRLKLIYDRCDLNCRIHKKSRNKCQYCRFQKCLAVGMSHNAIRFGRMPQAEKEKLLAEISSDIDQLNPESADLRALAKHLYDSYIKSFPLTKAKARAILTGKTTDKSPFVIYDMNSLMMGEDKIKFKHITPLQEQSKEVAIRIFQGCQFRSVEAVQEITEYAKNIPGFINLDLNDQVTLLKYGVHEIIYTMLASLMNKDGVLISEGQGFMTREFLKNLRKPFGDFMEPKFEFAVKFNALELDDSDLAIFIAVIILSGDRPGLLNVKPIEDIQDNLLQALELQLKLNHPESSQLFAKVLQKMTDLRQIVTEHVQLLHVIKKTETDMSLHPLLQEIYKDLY
Assay explanation: Agonist activity at mouse PPARgamma by transactivation assay
Outcome measure: EC50 (µM)
Give bare numbers, in µM.

query: Report measured EC50; entry is CC[C@]1(C(=O)O)OC[C@@H](CCCCc2nc(-c3ccccc3)oc2C)CO1
result: 10

The measurements presented in this section are drawn from ChEMBL document CHEMBL1142377.
